molecular target: PI3K-α (Homo sapiens, UniProt P42336); assay: PI3K-alpha fluorescence polarization assay; settings: read-out: IC50 PI3Kα
Sequence (P42336 whole entry, species assumed): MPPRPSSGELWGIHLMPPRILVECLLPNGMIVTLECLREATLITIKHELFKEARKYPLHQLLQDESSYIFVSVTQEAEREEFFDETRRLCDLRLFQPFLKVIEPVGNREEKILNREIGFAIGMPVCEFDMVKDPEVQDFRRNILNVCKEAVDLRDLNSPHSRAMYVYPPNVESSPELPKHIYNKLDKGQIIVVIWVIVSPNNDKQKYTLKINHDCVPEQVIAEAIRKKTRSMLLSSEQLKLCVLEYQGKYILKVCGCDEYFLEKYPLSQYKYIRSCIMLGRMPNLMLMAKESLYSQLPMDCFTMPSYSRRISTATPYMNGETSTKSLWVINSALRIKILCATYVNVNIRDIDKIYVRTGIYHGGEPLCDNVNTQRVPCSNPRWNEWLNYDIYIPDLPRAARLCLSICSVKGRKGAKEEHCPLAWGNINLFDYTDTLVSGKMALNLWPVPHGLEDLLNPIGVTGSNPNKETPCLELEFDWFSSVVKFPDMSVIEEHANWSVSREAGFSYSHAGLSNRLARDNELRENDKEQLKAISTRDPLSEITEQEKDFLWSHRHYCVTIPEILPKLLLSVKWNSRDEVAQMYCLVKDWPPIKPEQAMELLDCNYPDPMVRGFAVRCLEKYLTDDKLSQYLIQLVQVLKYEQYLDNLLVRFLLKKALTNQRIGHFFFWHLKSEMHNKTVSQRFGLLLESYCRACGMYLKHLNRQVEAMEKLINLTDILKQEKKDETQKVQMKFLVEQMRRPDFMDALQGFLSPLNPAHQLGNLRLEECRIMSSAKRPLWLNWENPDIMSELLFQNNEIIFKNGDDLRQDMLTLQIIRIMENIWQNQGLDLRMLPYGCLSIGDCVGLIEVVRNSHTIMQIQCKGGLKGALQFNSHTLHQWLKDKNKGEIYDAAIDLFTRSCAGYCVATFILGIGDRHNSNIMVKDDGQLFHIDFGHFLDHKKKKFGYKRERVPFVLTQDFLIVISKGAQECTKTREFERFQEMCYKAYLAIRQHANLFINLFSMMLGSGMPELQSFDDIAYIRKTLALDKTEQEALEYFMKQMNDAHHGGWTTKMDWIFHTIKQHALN
Sequence (P27986 whole entry partner, species assumed): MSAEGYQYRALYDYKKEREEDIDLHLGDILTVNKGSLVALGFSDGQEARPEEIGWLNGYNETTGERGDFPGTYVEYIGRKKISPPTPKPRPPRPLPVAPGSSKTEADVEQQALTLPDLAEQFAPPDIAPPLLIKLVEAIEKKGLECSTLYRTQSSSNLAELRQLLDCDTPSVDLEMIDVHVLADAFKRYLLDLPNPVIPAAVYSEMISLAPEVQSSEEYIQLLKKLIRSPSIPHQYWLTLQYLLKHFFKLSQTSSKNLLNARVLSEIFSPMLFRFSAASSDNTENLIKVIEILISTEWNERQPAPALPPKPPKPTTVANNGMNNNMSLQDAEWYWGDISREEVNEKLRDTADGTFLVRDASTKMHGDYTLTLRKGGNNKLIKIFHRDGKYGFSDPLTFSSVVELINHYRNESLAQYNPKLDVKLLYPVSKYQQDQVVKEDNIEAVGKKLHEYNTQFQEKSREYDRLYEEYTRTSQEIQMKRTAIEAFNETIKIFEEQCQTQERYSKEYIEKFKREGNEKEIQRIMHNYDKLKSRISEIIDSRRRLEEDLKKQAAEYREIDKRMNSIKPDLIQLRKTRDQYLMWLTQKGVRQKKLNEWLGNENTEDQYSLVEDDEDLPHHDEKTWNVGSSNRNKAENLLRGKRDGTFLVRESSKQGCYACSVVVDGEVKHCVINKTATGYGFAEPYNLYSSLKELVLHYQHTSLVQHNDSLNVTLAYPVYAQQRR
pIC50: −log10 of the molar value.
Threshold rule: pIC50 greater than or equal to 8 is Y; below that, N.

# COMPOUND, CLASS
measured = [
    ("CN(C)CCCNC(=O)c1ccc(NC(=O)Nc2ccc(-c3nc(N4CCOCC4)nc(N4C5CCC4COC5)n3)cc2)cc1 [Example 700]", "Y"),
    ("CN1CCN(c2nc(-c3ccc(NC(=O)Nc4ccncc4)cc3)nc(N3CC4CCC(C3)O4)n2)CC1 [Example 108]", "N"),
    ("CCc1nc(-c2ccc(NC(=O)Nc3ccc(C(=O)NC4CN(C)C4)cc3)cc2)nc(N2CCOCC2)n1 [Example 299]", "Y"),
    ("C[C@@H]1COCCN1c1nc(-c2ccc(NC(=O)Nc3ccc(OCCN(C)C)cc3)cc2)nc(C2CCOCC2)n1 [Example 427]", "N"),
    ("N#Cc1ccc(NC(=O)Nc2ccc(-c3nc(N4CCOCC4)nc(N4CCC5(CC4)OCCO5)n3)cc2)cc1 [Example 134]", "N"),
    ("O=C(Nc1ccc(C(=O)NCCN2CCCCC2)cc1)Nc1ccc(-c2nc(N3CCOCC3)nc(N3C4COCC3COC4)n2)cc1 [Example 775]", "Y"),
    ("CN(C)C1CCN(C(=O)c2ccc(NC(=O)Nc3ccc(-c4nc(C5CCOCC5)nc(N5CCOCC5)n4)cc3)cc2)CC1 [Example 350]", "Y"),
    ("COC(=O)CNC1CCN(c2nc(-c3ccc(NC(=O)Nc4ccncc4)cc3)nc(N3CC4CCC(C3)O4)n2)CC1 [Example 125]", "N"),
    ("CN(C)CC(=O)N1CCN(c2nc(-c3ccc(NC(=O)Nc4ccncc4)cc3)nc(N3CC4CCC(C3)O4)n2)CC1 [Example 112]", "N"),
    ("C[C@H]1COCCN1c1nc(-c2ccc(NC(=O)Nc3ccc(C(=O)N4CCCCC4)cc3)cc2)nc(N2CCOC[C@@H]2C)n1 [Example 637]", "N"),
    ("CN(C)[C@H]1CCN(C(=O)c2ccc(NC(=O)Nc3ccc(-c4nc(N5CCOCC5)nc(N5CCOCC5)n4)cc3)cc2)C1 [Example 485]", "Y"),
    ("CCc1nc(-c2ccc(NC(=O)Nc3cccc(C(=O)N(C)CCN(C)C)c3)cc2)nc(N2CCOCC2)n1 [Example 588]", "N"),
    ("CC(C)Oc1nc(-c2ccc(NC(=O)Nc3ccc(C(=O)NCCN(C)C)cc3)cc2)nc(N2CCOCC2)n1 [Example 187]", "Y"),
    ("O=C(Nc1ccc(CN2CCNCC2)cc1)Nc1ccc(-c2nc(N3C4CCC3COC4)nc(N3C4CCC3COC4)n2)cc1 [Example 366]", "N"),
]

====

molecular target: PI3K-γ (Homo sapiens); test: PI3K-gamma fluorescence polarization assay; conditions: read-out: IC50 PI3Kγ; listed as 531

# SMILES NOTATION, IC50
rows = [
    ("Cc1ccc(-c2nc(-c3ccc(NC(=O)Nc4ccc(N5CCC(N(C)C)CC5)cc4)cc3)nc(N3CCOCC3)n2)cc1", "484 nM"),
]

====

target: PI3K-α (Homo sapiens); assay: PI3K-alpha fluorescence polarization assay; details: read-out: IC50 PI3Kα; listed as 714

# COMPOUND, ASSAYED TARGET, IC50
data = [
    ("COCCOc1nc(-c2ccc(NC(=O)Nc3ccncc3)cc2)nc(N2CCOCC2)n1 [Example 200]", "PI3K-α (Homo sapiens)", "15.5 nM"),
]

====

test system: human prostate PC3-mm2 tumor cell line; experiment: In vitro cell culture growth assay (MTS), PC3-mm2; format: cell-based; details: Homo sapiens, PC3MM2, 72 h, MTS cell growth assay, three days after drug treatment; read-out: IC50 PC3-mm2
Please use rule met for IC50 under 200 nM and rule not met for everything else, ties included.

# COMPOUND, CLASS
measured = [
    ("O=C(Nc1ccncc1)Nc1ccc(-c2nc(-c3cnc4ccccc4c3)nc(N3CCOCC3)n2)cc1", "rule not met"),
    ("CCCCc1nc(-c2ccc(NC(=O)Nc3ccc(C(=O)Nc4ccc(OCCN(C)C)cc4)cc3)cc2)nc(N2CCOCC2)n1", "rule met"),
    ("O=C(Nc1ccncc1)Nc1ccc(-c2nc(N3CCOCC3)nc(N3CC4CCC(C3)O4)n2)cc1", "rule met"),
    ("O=C(Nc1ccc(O)cc1)Nc1ccc(-c2nc(N3CCOCC3)nc(N3CCOCC3)n2)cc1", "rule not met"),
    ("CN1CCN(C(=O)c2ccc(NC(=O)Nc3ccc(-c4nc(C5=CCOCC5)nc(N5CCOCC5)n4)cc3)cc2)CC1", "rule met"),
    ("CN(C)CCNC(=O)c1ccc(NC(=O)Nc2ccc(-c3nc(C4=CCOCC4)nc(N4CCOCC4)n3)cc2)cc1", "rule met"),
    ("CCc1nc(-c2ccc(NC(=O)Nc3ccc(C(=O)NC4CN(C)C4)cc3)cc2)nc(N2CCOCC2)n1", "rule not met"),
    ("CCc1nc(-c2ccc(NC(=O)Nc3ccc(N4CCC(N(C)C)CC4)cc3)cc2)nc(N2CCOCC2)n1", "rule not met"),
    ("O=C(Nc1ccc(C(=O)O)cc1)Nc1ccc(-c2nc(C3=CCOCC3)nc(N3CCOCC3)n2)cc1", "rule not met"),
    ("O=C(Nc1ccccc1)Nc1ccc(-c2nc(N3CCOCC3)nc(N3CCC4(CC3)OCCO4)n2)cc1", "rule not met"),
    ("CC(O)c1ccc(NC(=O)Nc2ccc(-c3nc(N4CCOCC4)nc(N4CCOC[C@@H]4C)n3)cc2)cc1 (stereo partly drawn)", "rule met"),
    ("Cc1ccc(-c2nc(-c3ccc(NC(=O)Nc4ccc(C(=O)O)cc4)cc3)nc(N3CCOCC3)n2)cc1", "rule not met"),
    ("O=C(Nc1ccc(F)cc1)Nc1ccc(-c2nc(NC3CNC3)nc(N3CCOCC3)n2)cc1", "rule not met"),
    ("N#Cc1ccc(NC(=O)Nc2ccc(-c3nc(N4CCOCC4)nc(N4CCC5(CC4)OCCO5)n3)cc2)cc1", "rule not met"),
    ("O=C(Nc1ccc(-c2nc(N3CCOCC3)nc(N3C4CCC3COC4)n2)cc1)Nc1ccc(Cl)nc1", "rule met"),
]

====

The following molecules are listed with their measured IC50 values.
molecular target: PI3K-γ (Homo sapiens, UniProt P48736); experiment: PI3K-gamma fluorescence polarization assay; conditions: read-out: IC50 PI3Kγ
Sequence (P48736 whole entry, species assumed): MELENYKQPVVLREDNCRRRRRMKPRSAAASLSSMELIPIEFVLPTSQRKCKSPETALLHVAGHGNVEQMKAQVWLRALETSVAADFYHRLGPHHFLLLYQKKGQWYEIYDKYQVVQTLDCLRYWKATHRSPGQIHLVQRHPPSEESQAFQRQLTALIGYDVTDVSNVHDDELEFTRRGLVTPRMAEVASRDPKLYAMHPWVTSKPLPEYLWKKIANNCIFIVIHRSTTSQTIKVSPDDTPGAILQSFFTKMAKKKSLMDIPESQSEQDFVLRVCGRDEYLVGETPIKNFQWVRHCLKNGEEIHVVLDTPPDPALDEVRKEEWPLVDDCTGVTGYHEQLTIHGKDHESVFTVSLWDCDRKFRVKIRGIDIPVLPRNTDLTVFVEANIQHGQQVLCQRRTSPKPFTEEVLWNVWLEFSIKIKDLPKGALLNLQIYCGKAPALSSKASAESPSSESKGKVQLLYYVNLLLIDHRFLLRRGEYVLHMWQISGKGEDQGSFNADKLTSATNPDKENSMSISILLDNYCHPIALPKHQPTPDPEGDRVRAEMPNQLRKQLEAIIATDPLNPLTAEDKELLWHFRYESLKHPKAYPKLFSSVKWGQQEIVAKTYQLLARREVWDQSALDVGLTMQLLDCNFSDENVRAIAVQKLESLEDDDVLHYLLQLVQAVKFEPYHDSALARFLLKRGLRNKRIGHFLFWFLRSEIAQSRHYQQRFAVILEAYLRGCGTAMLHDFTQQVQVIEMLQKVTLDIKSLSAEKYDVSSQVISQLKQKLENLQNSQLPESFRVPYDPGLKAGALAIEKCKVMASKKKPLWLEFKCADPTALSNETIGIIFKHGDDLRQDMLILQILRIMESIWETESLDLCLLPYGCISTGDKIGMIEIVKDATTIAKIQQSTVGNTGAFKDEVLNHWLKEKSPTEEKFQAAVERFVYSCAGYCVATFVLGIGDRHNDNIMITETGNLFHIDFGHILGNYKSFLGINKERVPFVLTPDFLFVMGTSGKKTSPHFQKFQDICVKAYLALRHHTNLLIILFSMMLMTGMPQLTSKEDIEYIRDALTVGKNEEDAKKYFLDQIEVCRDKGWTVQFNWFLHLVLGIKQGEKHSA
ASSAY METRIC: IC50 (nM)

# MOLECULE, RECORDED MEASUREMENT
rows = [
    ("CN1CCN(c2ccc(NC(=O)Nc3ccc(-c4nc(N5CCOCC5)nc(N5C6CCC5COC6)n4)cc3)cc2)CC1 [Example 43]", 35),
    ("O=C(Nc1ccc(CO)cc1)Nc1ccc(-c2nc(OC3CCOCC3)nc(N3CCOCC3)n2)cc1 [Example 62]", 24),
    ("CC(C)c1nc(-c2ccc(NC(=O)Nc3ccc(C(=O)NCCN(C)C)cc3)cc2)nc(N2CCOCC2)n1 [Example 305]", 18),
    ("CCc1nc(-c2ccc(NC(=O)Nc3ccc(C(=O)Nc4ccc(N5CCN(C)CC5)cc4)cc3)cc2)nc(N2CCOCC2)n1 [Example 251]", 21),
    ("CN(C)CCNC(=O)c1ccc(NC(=O)Nc2ccc(-c3nc(NS(=O)(=O)c4ccccc4)nc(N4CCOCC4)n3)cc2)cc1 [Example 788]", 160),
    ("COC(=O)c1ccc(NC(=O)Nc2ccc(-c3nc(OC(C)C)nc(N4CCOCC4)n3)cc2)cc1 [Example 95]", 101),
    ("O=C(Nc1ccc(C(=O)N2CCC(N3CCCCC3)CC2)cc1)Nc1ccc(-c2nc(N3CCOCC3)nc(N3C4CCC3COC4)n2)cc1 [Example 760]", 28.3),
]

====

biological target: UniProt P48736; experiment: PI3K-gamma fluorescence polarization assay; details: read-out: IC50 PI3Kγ; listed as 229
pIC50: −log10 of the molar value.
ASSAY METRIC: pIC50

# COMPOUND, RECORDED MEASUREMENT
rows = [
    ("CN1CCN(c2ccc(NC(=O)Nc3ccc(-c4nc(N5CCOCC5)nc(N5C6CCC5COC6)n4)cc3)cc2)CC1 [Example 43]", 7.15),
]

====

system: human prostate PC3-mm2 tumor cell line; assay: In vitro cell culture growth assay (MTS), PC3-mm2; format: cell-based; conditions: Homo sapiens, PC3MM2, 72 h, MTS cell growth assay, three days after drug treatment; read-out: IC50 PC3-mm2
Please use fulfilled for IC50 under 200 nM and not fulfilled for everything else, ties included.

# SMILES NOTATION, CLASS
records = [
    ("O=C(Nc1ccccc1)Nc1ccc(-c2nc(N3CCOCC3)nc(N3CC4CCC(C3)O4)n2)cc1", "fulfilled"),
    ("O=C(Nc1ccc(F)cc1)Nc1ccc(-c2nc(N3CCOCC3)nc(N3C4CCC3COC4)n2)cc1", "fulfilled"),
    ("CN(C)CCN(C)C(=O)c1ccc(NC(=O)Nc2ccc(-c3nc(N4CCC4)nc(N4CCOCC4)n3)cc2)cc1", "fulfilled"),
    ("CC(C)c1nc(-c2ccc(NC(=O)Nc3ccc(C(=O)O)cc3)cc2)nc(N2CCOCC2)n1", "not fulfilled"),
    ("CN(C)CCN(C)C(=O)c1ccc(NC(=O)Nc2ccc(-c3nc(C4=CCOCC4)nc(N4CCOCC4)n3)cc2)cc1", "fulfilled"),
    ("CN(C)C1CCN(C(=O)c2ccc(NC(=O)Nc3ccc(-c4nc(C5CCOCC5)nc(N5CCOCC5)n4)cc3)cc2)CC1", "fulfilled"),
    ("O=C(Nc1ccc(-c2nc(N3CCOCC3)nc(N3CCOCC3)n2)cc1)Nc1cccs1", "fulfilled"),
    ("CN(C)CCCc1nc(-c2ccc(NC(=O)Nc3ccncc3)cc2)nc(N2CCOCC2)n1", "not fulfilled"),
    ("CN(C)c1ccc(NC(=O)Nc2ccc(-c3nc(OC4CCOCC4)nc(N4CCOCC4)n3)cc2)cc1", "fulfilled"),
    ("CCc1nc(-c2ccc(NC(=O)Nc3ccc(OCCN(C)C)cc3)cc2)nc(N2CCOCC2)n1", "fulfilled"),
    ("C[C@H]1COCCN1c1nc(-c2ccc(NC(=O)Nc3ccc(CO)cc3)cc2)nc(N2CCOCC2)n1", "not fulfilled"),
    ("O=C(Nc1ccc(F)cc1)Nc1ccc(-c2nc(N3CCOCC3)nc(N3CCOCC3)n2)cc1", "fulfilled"),
    ("N#Cc1ccc(NC(=O)Nc2ccc(-c3nc(N4CCOCC4)nc(N4C5CCC4COC5)n3)cc2)cc1", "not fulfilled"),
    ("O=C(Nc1ccncc1)Nc1ccc(-c2nc(CCNc3ccncc3)nc(N3CCOCC3)n2)cc1", "not fulfilled"),
    ("O=C(Nc1ccc(CO)cc1)Nc1ccc(-c2nc(OC3CCOCC3)nc(N3CCOCC3)n2)cc1", "fulfilled"),
]

Source of measurements: patent US20090304692A1
